experiment.summary: NCI Yeast Anticancer Drug Screen. Data for the rad50 strain (AID 155);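 also: 0% = growth of vehicle-only cultures of the same strain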
run.conditions: S. cerevisiae rad50 strain growth inhibition; at 50.0 µM (retest, dose inferred, filed as 5.0); stronger effect = higher value
This is part of a sample that, as a whole, favours compounds with a hit. Of some 79,000 tested, about 15% had one in any assay.
Threshold rule: growth inhibition greater than or equal to 80% is true (1); below that, false (0).

Worked examples follow.
# compound, class
records = [
    ("CC(=O)OC(C)C(=O)NCC(C)O (stereo not drawn)", "false (0)"),
    ("CCCCNc1ccc(Nc2ccccc2)cc1", "true (1)"),
    ("N#CC(c1ccccc1)c1cccc2ccccc12 (stereo not drawn)", "false (0)"),
    ("COc1ccc(Nc2ccc3ccccc3c2)cc1", "false (0)"),
    ("CCCCCCCCCCNC(=O)CI", "true (1)"),
    ("O=C(Cc1ccccc1)c1ccc(O)c(Cl)c1", "true (1)"),
]

Next:
Please check the record Fc1ccc([I+]c2ccc(F)cc2)cc1 and state if its growth inhibition is at or above 80%.
true (1)
